Each entry below lists one item and its recorded log10 Ki value.
Molecular target: Adenosine receptor A3 (Homo sapiens, UniProt P0DMS8)
Sequence (P0DMS8 whole entry): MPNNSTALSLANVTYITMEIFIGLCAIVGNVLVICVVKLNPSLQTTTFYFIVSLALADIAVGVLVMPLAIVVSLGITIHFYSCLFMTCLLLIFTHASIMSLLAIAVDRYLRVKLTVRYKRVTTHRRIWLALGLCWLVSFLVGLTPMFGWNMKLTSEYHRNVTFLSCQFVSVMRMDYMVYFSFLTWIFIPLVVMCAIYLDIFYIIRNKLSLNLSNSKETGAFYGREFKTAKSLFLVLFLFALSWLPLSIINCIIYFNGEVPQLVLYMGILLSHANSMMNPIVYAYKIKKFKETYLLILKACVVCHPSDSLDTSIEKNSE
Assay: Displacement of [3H]I-AB-MECA from human recombinant adenosine A3 receptor expressed in CHO cells after 60 mins by liquid scintillation counting
Kindly note that the scale is log10 and the underlying Ki is in nM.

Worked set:
# Smiles input, log10 Ki
records = [
    ("O[C@@H]1[C@H](O)[C@@H]2C[C@@H]2[C@H]1n1cnc2c(NCC(c3ccccc3)c3ccccc3)nc(C#Cc3ccccc3Cl)nc21", 2.15),
    ("O[C@@H]1[C@H](O)[C@@H]2C[C@@H]2[C@H]1n1cnc2c(NCC(c3ccccc3)c3ccccc3)nc(C#Cc3ccc(F)c(F)c3)nc21", 2.53),
    ("O[C@@H]1[C@H](O)[C@@H]2C[C@@H]2[C@H]1n1cnc2c(NCC(c3ccccc3)c3ccccc3)nc(C#Cc3ccc(-c4ccccc4)cc3)nc21", 3.12),
]

What value of measured log10 Ki is listed for O[C@@H]1[C@H](O)[C@@H]2C[C@@H]2[C@H]1n1cnc2c(NCc3cccc(Cl)c3)nc(C#Cc3ccccc3Cl)nc21 ? 1.85

What value of measured log10 Ki is listed for CNc1nc(C#Cc2ccccc2Cl)nc2c1ncn2[C@H]1[C@H](O)[C@H](O)[C@@H]2C[C@@H]21 ? 0.51

What value of measured log10 Ki is listed for O[C@@H]1[C@H](O)[C@@H]2C[C@@H]2[C@H]1n1cnc2c(NCC(c3ccccc3)c3ccccc3)nc(C#Cc3cccc(Cl)c3)nc21 ? 2.41

What value of measured log10 Ki is listed for O[C@@H]1[C@H](O)[C@@H]2C[C@@H]2[C@H]1n1cnc2c(NCc3cccc(Cl)c3)nc(C#Cc3ccc(-c4ccccc4)cc3)nc21 ? 1.73
